system: MFM-223; assay: normalised response (% of control), CellTiter-Glo; higher = more viable cells (100 = DMSO, 0 = benzethonium chloride kill control); conditions: incubation time: 72 h

molecule: Oc1ccc2c(c1)CC[C@H](c1ccccc1)[C@@H]2c1ccc(OCCN2CCCC2)cc1 [Lasofoxifene] (10 nM)
normalised response / %: 105

molecule: O=C(/C=C/c1cccc(S(=O)(=O)Nc2ccccc2)c1)NO [Belinostat] (100 nM)
normalised response / %: 85.6

molecule: Cc1[nH]c2ccccc2c1CCNCc1ccc(/C=C/C(=O)NO)cc1 [Panobinostat] (10 nM)
normalised response / %: 90.8

molecule: CCn1c(-c2nonc2N)nc2cnc(Oc3cccc(NC(=O)c4ccc(OCCN5CCOCC5)cc4)c3)cc21 (100 nM)
normalised response / %: 98

====

tested on: HCC1937; test: normalised response (% of control), CellTox Green; higher = less cell death (100 = DMSO, 0 = benzethonium chloride kill control); settings: incubation time: 72 h

compound: COc1cc(O)c2c(c1)/C=C/C[C@H](O)[C@H](O)C(=O)/C=C\C[C@H](C)OC2=O [(5Z)-7-Oxozeaenol] (100 nM)
unit info: %
normalised response: 105

compound: N#Cc1ccc(COC[C@H]2O[C@@H](n3c(NCc4ccc(Cl)c(Cl)c4)nc4c(N)ncnc43)[C@H](O)[C@@H]2O)cc1 (100 nM)
unit info: %
normalised response: 60.8

compound: COc1cc(O)c2c(c1)/C=C/C[C@H](O)[C@H](O)C(=O)/C=C\C[C@H](C)OC2=O [(5Z)-7-Oxozeaenol] (10000 nM)
unit info: %
normalised response: -41.8

compound: Cc1cc(Nc2cc(CN3CCOCC3)c3nc(C)c(Cc4ccc(Cl)cc4F)n3n2)n[nH]1 [Gandotinib] (1000 nM)
unit info: %
normalised response: 101

compound: COCC1(CO)C(=O)C2CCN1CC2 (stereo not given) [Prima-1 Met] (100 nM)
unit info: %
normalised response: 122

compound: O=C(/C=C/c1cccc(S(=O)(=O)Nc2ccccc2)c1)NO [Belinostat] (1000 nM)
unit info: %
normalised response: 117

compound: C=C1C[C@@H]2[C@H](CC[C@]3(C)C(=O)CC[C@@H]23)[C@@]2(C)C=CC(=O)C=C12 [Exemestane] (10000 nM)
unit info: %
normalised response: 115

compound: CN(C)c1nc(N(C)C)nc(N(C)C)n1 [Altretamine] (10000 nM)
unit info: %
normalised response: 104

compound: C=C1C[C@@H]2[C@H](CC[C@]3(C)C(=O)CC[C@@H]23)[C@@]2(C)C=CC(=O)C=C12 [Exemestane] (1000 nM)
unit info: %
normalised response: 121

compound: NC(=O)c1ccc(I)c([N+](=O)[O-])c1 [Iniparib] (1000 nM)
unit info: %
normalised response: 63.7

compound: CC(C)C[C@@H](C(=O)N[C@H](C(=O)OC1CCCC1)c1ccccc1)[C@H](O)C(=O)NO [Tosedostat] (1000 nM)
unit info: %
normalised response: 90.1

compound: COC(=O)c1ccc2c(c1)NC(=O)/C2=C(\Nc1ccc(N(C)C(=O)CN2CCN(C)CC2)cc1)c1ccccc1 [Nintedanib] (10000 nM)
unit info: %
normalised response: 14.2

compound: O=C(Nc1ccncc1)C(=O)c1cn(Cc2ccc(Cl)cc2)c2ccccc12 [Indibulin] (1000 nM)
unit info: %
normalised response: 68.1

compound: CN(C)CCOc1ccc(/C(=C(/CCCl)c2ccccc2)c2ccccc2)cc1 [Toremifene] (1000 nM)
unit info: %
normalised response: 110

compound: O=C(/C=C/c1cccc(S(=O)(=O)Nc2ccccc2)c1)NO [Belinostat] (100 nM)
unit info: %
normalised response: 89.8

====

tested on: CAL-51; assay: normalised viability (% of control), CellTiter-Blue; higher = more viable cells (about 100 = DMSO control); conditions: 10 nM; incubation time: 72 h
Here, each record is paired with measured normalised viability data.

compound: COCC1(CO)C(=O)C2CCN1CC2 (stereo unspecified) [Prima-1 Met]
unit info: %
normalised viability: 93.9
//
compound: CNC(=O)c1cc(Oc2ccc(NC(=O)Nc3ccc(Cl)c(C(F)(F)F)c3)c(F)c2)ccn1 [Regorafenib]
unit info: %
normalised viability: 101
//
compound: O=C(/C=C/c1cccc(S(=O)(=O)Nc2ccccc2)c1)NO [Belinostat]
unit info: %
normalised viability: 105
//
compound: COc1cc2/c(=N/c3ccc(Br)cc3F)nc[nH]c2cc1OCC1CCN(C)CC1 [Vandetanib]
unit info: %
normalised viability: 99.3
//
compound: NC(=O)c1ccc(I)c([N+](=O)[O-])c1 [Iniparib]
unit info: %
normalised viability: 93
//
compound: O=C(Nc1ccncc1)C(=O)c1cn(Cc2ccc(Cl)cc2)c2ccccc12 [Indibulin]
unit info: %
normalised viability: 100

====

test system: CAL-85-1; test: normalised viability (% of control), CellTiter-Blue; higher = more viable cells (about 100 = DMSO control); settings: incubation time: 72 h
value type: normalised viability (%)

compound: Cc1[nH]c2ccccc2c1CCNCc1ccc(/C=C/C(=O)NO)cc1 [Panobinostat] (1000 nM)
target entity: CAL-85-1
value type: normalised viability
reported measurement: 4.25
--
compound: COc1cc2/c(=N/c3ccc(Br)cc3F)nc[nH]c2cc1OCC1CCN(C)CC1 [Vandetanib] (10000 nM)
target entity: CAL-85-1
value type: normalised viability
reported measurement: 17.3
--
compound: CN(C)CCOc1ccc(/C(=C(/CCCl)c2ccccc2)c2ccccc2)cc1 [Toremifene] (10000 nM)
target entity: CAL-85-1
value type: normalised viability
reported measurement: 83.6
--
compound: COCC[n+]1c2c(n(Cc3cnccn3)c1C)C(=O)c1ccccc1C2=O [YM155] (10000 nM)
target entity: CAL-85-1
value type: normalised viability
reported measurement: 2.71
--
compound: NC(=O)c1ccc(I)c([N+](=O)[O-])c1 [Iniparib] (10000 nM)
target entity: CAL-85-1
value type: normalised viability
reported measurement: 98
--
compound: Oc1ccc2c(c1)CC[C@H](c1ccccc1)[C@@H]2c1ccc(OCCN2CCCC2)cc1 [Lasofoxifene] (1000 nM)
target entity: CAL-85-1
value type: normalised viability
reported measurement: 81.8
--
compound: Cc1cc(Nc2cc(CN3CCOCC3)c3nc(C)c(Cc4ccc(Cl)cc4F)n3n2)n[nH]1 (10000 nM)
target entity: CAL-85-1
value type: normalised viability
reported measurement: 33.1
--
compound: COCC1(CO)C(=O)C2CCN1CC2 (stereo not drawn) [Prima-1 Met] (10000 nM)
target entity: CAL-85-1
value type: normalised viability
reported measurement: 98.3

====

system: Hs578T; test: normalised response (% of control), CellTiter-Glo; higher = more viable cells (100 = DMSO, 0 = benzethonium chloride kill control); details: incubation time: 72 h
Here, each record is paired with measured normalised response data.

compound: CNC(=O)c1cccc(-c2ccc3c(N4CCOC[C@@H]4C)nc(N4CCOC[C@@H]4C)nc3n2)c1 [AZD2014] (10000 nM)
normalised response: 27.4%
//
compound: CNC(=O)c1cc(Oc2ccc(NC(=O)Nc3ccc(Cl)c(C(F)(F)F)c3)c(F)c2)ccn1 [Regorafenib] (10000 nM)
normalised response: 47%
//
compound: CCOC(=O)CCNc1cc(N2CCc3ccccc3CC2)nc(-c2ccccn2)n1 [GSK-J4] (100000 nM)
normalised response: 0.22%
//
compound: COCC[n+]1c2c(n(Cc3cnccn3)c1C)C(=O)c1ccccc1C2=O [YM155] (10000 nM)
normalised response: -0.62%
//
compound: COC(=O)c1ccc2c(c1)NC(=O)/C2=C(\Nc1ccc(N(C)C(=O)CN2CCN(C)CC2)cc1)c1ccccc1 [Nintedanib] (10000 nM)
normalised response: 82.3%
//
compound: O=P1(N(CCCl)CCCl)NCCCO1 (centres undefined) [Cyclophosphamide] (40000 nM)
normalised response: 106%
//
compound: Cc1cc(Nc2cc(CN3CCOCC3)c3nc(C)c(Cc4ccc(Cl)cc4F)n3n2)n[nH]1 [Gandotinib] (10000 nM)
normalised response: 7.38%
//
compound: CN(C)CCOc1ccc(/C(=C(/CCCl)c2ccccc2)c2ccccc2)cc1 [Toremifene] (10000 nM)
normalised response: 82.1%
//
compound: O=C(Nc1cccnc1)N1CCC(Cc2cccc(Oc3ccc(C(F)(F)F)cn3)c2)CC1 [PF-3845] (10000 nM)
normalised response: 92.1%

====

tested on: CAL-51; assay: drug sensitivity score (DSS), CellTiter-Glo (DSS (AUC-based score)); higher = stronger drug effect (viability inhibition or cytotoxicity); extreme values may be limits of the assay; conditions: incubation time: 72 h
I would appreciate it if you labelled entries Yes when drug sensitivity score is 2 or higher, otherwise No.

molecule: NC(=O)c1ccc(I)c([N+](=O)[O-])c1 [Iniparib]
target entity: CAL-51
category label: No
--
molecule: Cc1[nH]c2ccccc2c1CCNCc1ccc(/C=C/C(=O)NO)cc1 [Panobinostat]
target entity: CAL-51
category label: Yes
--
molecule: O=C(Nc1cccnc1)N1CCC(Cc2cccc(Oc3ccc(C(F)(F)F)cn3)c2)CC1 [PF-3845]
target entity: CAL-51
category label: Yes
--
molecule: COc1cc2/c(=N/c3ccc(Br)cc3F)nc[nH]c2cc1OCC1CCN(C)CC1 [Vandetanib]
target entity: CAL-51
category label: No
--
molecule: COc1cc2ncnc(Nc3ccc(F)c(Cl)c3)c2cc1OCCCN1CCOCC1 [Gefitinib]
target entity: CAL-51
category label: No
--
molecule: COc1cc2c(NC3CCN(C(C)C)CC3)nc(N3CCC(F)(F)CC3)nc2cc1OCCCN1CCCC1 [UNC0642]
target entity: CAL-51
category label: No
--
molecule: O=C(Nc1ccncc1)C(=O)c1cn(Cc2ccc(Cl)cc2)c2ccccc12 [Indibulin]
target entity: CAL-51
category label: Yes
